Hello, the source for this data is patent US5371225A, in case you need it.

- System: spleen cells (antibody production, direct PFC count)
- ASSAY_OVERVIEW: Plaque Forming Cell Assay (inhibition of antibody production)
- Assay type: cell-based, Balb/c strain mice
- PROTOCOL_CONDITIONS: Mus musculus, Erythrocyte, 120 h; 10^-5 M; spleen cells of mice sensitized with sheep erythrocytes, cultured 5 days; read-out: Inhibition rate
What inhibition at 10 µM was measured for each of the following?
Numbers only, in %.

Some entries whose results are on file:
molecule=O=C(O)c1c2c(nc3ccc(F)cc13)-c1ccc(-c3ccccc3F)cc1CCC2 reading_unit=% measured=83.5
molecule="O=C(O)c1c2c(nc3ccc(F)cc13)-c1ccc(-c3ccccc3)cc1CC2 [A, reference compound]" reading_unit=% measured=78.6
molecule=O=C(O)c1c2c(nc3ccc(F)cc13)-c1ccc(-c3ccccc3F)cc1CC2 reading_unit=% measured=99.4

For every item in the list below, what is its measured inhibition at 10 µM?
1. CC1(C)Cc2c(nc3ccc(F)cc3c2C(=O)O)-c2ccc(-c3ccccc3F)cc21
2. CC1Cc2cc(-c3ccccc3F)ccc2-c2nc3ccc(F)cc3c(C(=O)O)c21 (stereo not drawn)
3. CC1Cc2c(nc3ccc(F)cc3c2C(=O)O)-c2ccc(-c3ccccc3F)cc21 (stereo not drawn)

Result:
98.1
98.7
98.7
